target: UniProt:Q9Y5Z0
Sequence (Q9Y5Z0 63-473 limits assumed): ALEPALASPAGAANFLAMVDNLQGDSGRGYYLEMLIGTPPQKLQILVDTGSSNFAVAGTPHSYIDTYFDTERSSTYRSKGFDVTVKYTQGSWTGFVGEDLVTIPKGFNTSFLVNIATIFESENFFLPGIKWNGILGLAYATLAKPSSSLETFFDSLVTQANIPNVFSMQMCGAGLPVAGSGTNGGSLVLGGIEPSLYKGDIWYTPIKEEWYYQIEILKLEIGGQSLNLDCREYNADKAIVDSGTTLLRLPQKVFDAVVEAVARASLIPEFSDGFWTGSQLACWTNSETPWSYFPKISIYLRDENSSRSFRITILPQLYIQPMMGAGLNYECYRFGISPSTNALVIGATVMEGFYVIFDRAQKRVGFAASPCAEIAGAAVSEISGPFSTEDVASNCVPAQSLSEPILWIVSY
# Ki values compiled below
The reply should contain only the number, in nM.

[
  {
    "itemSmiles": "CN1C(=N)N[C@]2(C)c3cc(NC(=O)c4ncc(C(F)(F)F)cc4Cl)ccc3CCC[C@@H]2S1(=O)=O",
    "resultUnit": "nM",
    "Ki": 82
  },
  {
    "itemSmiles": "Cc1cc(C#N)cnc1C(=O)Nc1ccc2c(c1)[C@@]1(C)NC(=N)N(C)S(=O)(=O)[C@H]1CCC2",
    "resultUnit": "nM",
    "Ki": 10
  },
  {
    "itemSmiles": "CN1C(=N)N[C@]2(C)c3cc(NC(=O)c4ccc(F)cn4)ccc3CCC[C@H]2S1(=O)=O",
    "resultUnit": "nM",
    "Ki": 96
  },
  {
    "itemSmiles": "CN1C(=N)N[C@]2(C)c3cc(NC(=O)c4ccc(OC(F)(F)F)cn4)ccc3OCC[C@@H]2S1(=O)=O",
    "resultUnit": "nM",
    "Ki": 104
  },
  {
    "itemSmiles": "CN1C(=N)N[C@]2(C)c3cc(NC(=O)c4ccc(C#N)cn4)ccc3OCC[C@@H]2S1(=O)=O",
    "resultUnit": "nM",
    "Ki": 14
  },
  {
    "itemSmiles": "CN1C(=N)N[C@]2(C)c3cc(NC(=O)c4ccc(OC(F)(F)F)cn4)ccc3CCC[C@@H]2S1(=O)=O",
    "resultUnit": "nM",
    "Ki": 144
  },
  {
    "itemSmiles": "Cc1ccc(C(=O)Nc2ccc3c(c2)[C@@]2(C)NC(=N)N(C)S(=O)(=O)[C@H]2CCC3)nc1",
    "resultUnit": "nM",
    "Ki": 34
  },
  {
    "itemSmiles": "Cc1ccc(C(=O)Nc2ccc3c(c2)[C@@]2(C)NC(=N)N(C)S(=O)(=O)[C@H]2CCO3)nc1",
    "resultUnit": "nM",
    "Ki": 16
  }
]

Briefly, Ki measured for `COCC(=O)Nc1ccc2c(c1)[C@@]1(C)NC(=N)N(C)S(=O)(=O)[C@@H]1CCO2` : 890

Ki recorded for this compound, `CN1C(=N)N[C@]2(C)c3cc(NC(=O)c4ccc(F)cn4)ccc3OCC[C@@H]2S1(=O)=O` , is 6

# Ki of `COc1cnc2c(Nc3ccc4c(c3)[C@@]3(C)NC(=N)N(C)S(=O)(=O)[C@H]3CCO4)nccc2c1` = 148

These measurements were taken from patent US10238743B2.
